Cited source for all entries: patent US7297505B2

# System: P-gp (MDR1)
# Assay info: in vitro
# Condition: dog, MDCK-MDR1
Doc: threshold 4 ×10⁻⁶ cm/s (exclusive). Items with Papp at 10 μM beneath it return criterion met; others return criterion not met.

Qu. Bench note: check whether O=C1CC2(CCCC2)CC(=O)N1CCCCN1CCN(c2ncccn2)CC1 shows Papp at 10 μM below 4 ×10⁻⁶ cm/s
Ans. criterion not met

Qu. Item: CC[C@@H]1C(=O)OC[C@@H]1Cc1cncn1C
Ans. criterion met

Qu. Item: CC(C)NCC(O)COc1ccc(CCOCC2CC2)cc1 (stereo not shown)
Ans. criterion not met

Qu. Item: NC(=O)Cc1cccc(C(=O)c2ccccc2)c1N
Ans. criterion not met

Qu. Item: Nc1cc(Cl)c(N=C2NCCN2)c(Cl)c1
Ans. criterion met

Qu. Item: O=C1OC2(c3ccc(O)cc3Oc3cc(O)ccc32)c2ccccc21
Ans. criterion met

Qu. Item: CC(C)(C)NC[C@H](O)COc1nsnc1N1CCOCC1
Ans. criterion met

* * *

# Test system: MDCK(MDR) monolayers
# Assay info: in vitro
# Condition: MDCK-MDR1
Give measured MDCK^2 for each item. Keep answers brief.
Give bare numbers.

A selection of reference data follows.
[[record]]
record_smiles = "C[C@@H]1C[C@H]2[C@@H]3CCC4=CC(=O)C=C[C@]4(C)[C@@]3(F)[C@@H](O)C[C@]2(C)[C@@]1(O)C(=O)CO"
result = 1428.84

[[record]]
record_smiles = "Nc1cc(Cl)c(N=C2NCCN2)c(Cl)c1"
result = 14.44


Provide MDCK^2 for all items below, preserving their order.
1. O=C1CC2(CCCC2)CC(=O)N1CCCCN1CCN(c2ncccn2)CC1
2. O=C1OC2(c3ccc(O)cc3Oc3cc(O)ccc32)c2ccccc21
3. CC(C)(C)NC[C@H](O)COc1nsnc1N1CCOCC1

Ans.
1. 105625
2. 43.56
3. 1149.21

* * *

# Assay info: Ex vivo corneal penetration (perfusion chamber)
# Assay type: in vitro ADME
# Condition: rabbit; Table 2; read-out: Ex vivo Rabbit Corneal Permeability, Papp nm/s
Property label: Papp at 5 h, 0.1 mMole (×10⁻⁶ cm/s)
One number for each entry, in ×10⁻⁶ cm/s.

A selection of reference data follows.
[[record]]
compound = "O=C1OC2(c3ccc(O)cc3Oc3cc(O)ccc32)c2ccccc21"
unit_text = "×10⁻⁶ cm/s"
result = 16

[[record]]
compound = "CC[C@@H]1C(=O)OC[C@@H]1Cc1cncn1C"
unit_text = "×10⁻⁶ cm/s"
result = 9.8

[[record]]
compound = "CC(C)(C)NC[C@H](O)COc1nsnc1N1CCOCC1"
unit_text = "×10⁻⁶ cm/s"
result = 24

[[record]]
compound = "O=C1CC2(CCCC2)CC(=O)N1CCCCN1CCN(c2ncccn2)CC1"
unit_text = "×10⁻⁶ cm/s"
result = 66.5


Provide Papp at 5 h, 0.1 mMole for all items below, preserving their order.
1. Nc1cc(Cl)c(N=C2NCCN2)c(Cl)c1
2. CC(C)NCC(O)COc1ccc(CCOCC2CC2)cc1 (stereo not shown)
3. NC(=O)Cc1cccc(C(=O)c2ccccc2)c1N

Ans.
1. 3.8
2. 60
3. 74
